PROTOCOL: Peptide stability in simulated intestinal fluid (SIF)
Format: in vitro ADME
CONDITION_CONTEXT: pig, simulated intestinal fluid (SIF) with porcine pancreatin, Table 3-2, porcine pancreatin, pH 6.8, 37° C., 10 μM, 4 h, read-out: SIF (% remaining 4 h)
*1 amine or outer side, *2 acyl side, *3 side chain or, on linkers, in order; H or OH if unused. Where a SMILES comes first, the peptide text is derived from it. Bridges are numbered along the chain shown (N, C = ends). [ ]: non-standard residue; d: D form. αMeAla(3-pyridyl) = C[C@](N)(Cc1cccnc1)C(=O)O; Phe(3,4-Me2) = Cc1ccc(C[C@H](N)C(=O)O)cc1C; Phe(4-Cl) = N[C@@H](Cc1ccc(Cl)cc1)C(=O)O; 2Nal = N[C@@H](Cc1ccc2ccccc2c1)C(=O)O; AEF = NCCOc1ccc(C[C@H](N)C(=O)O)cc1; X1 = O=C(Cc1ccc(CN[*:1])cc1)[*:2]; αMeL = CC(C)C[C@](C)(N)C(=O)O; CH2COCH2 = O=C(C[*:1])C[*:2]; αMeV = CC(C)[C@](C)(N)C(=O)O; Dab = NCC[C@H](N)C(=O)O
List of remaining at 4 h, 10 μM values.
MEASURED_ENDPOINT: remaining at 4 h, 10 μM (%)

- COMPOUND: "CC(=O)N[C@@H](CC(=O)O)C(=O)N[C@H]1CCC(=O)NCCCC[C@@H](C(=O)N[C@@H](CCC(=O)O)C(=O)N[C@@H](CC(N)=O)C(=O)NCC(N)=O)NC(=O)[C@](C)(CC(C)C)NC(=O)[C@H](Cc2ccc3ccccc3c2)NC(=O)[C@H](Cc2c[nH]c3ccccc23)NC(=O)[C@@H]2CSCC(=O)CSC[C@H](NC(=O)[C@H](CO)NC1=O)C(=O)N[C@@H](Cc1c[nH]c3ccccc13)C(=O)N[C@@H](CCC(N)=O)C(=O)N2 [Compound 58] (Ac-DESCWQCW[2Nal][αMeL]KENG-NH2; lactam 2-11; linker 4-7 via CH2COCH2)"
  MEASURED_ENDPOINT: "remaining at 4 h, 10 μM"
  VALUE_REPORTED: 45
- COMPOUND: "CC[C@H](C)[C@@H]1NC(=O)Cc2ccc(cc2)CNC(=O)CC[C@@H](C(=O)N[C@@H](CCN)C(=O)N[C@@](C)(Cc2cccnc2)C(N)=O)NC(=O)[C@](C)(C(C)C)NC(=O)[C@H](Cc2ccc(C)c(C)c2)NC(=O)[C@H](Cc2ccc(Cl)cc2)NC(=O)[C@@H]2CCNC(=O)CC[C@H](NC1=O)C(=O)N[C@@H](Cc1c[nH]c3ccccc13)C(=O)N[C@@H](CCC(N)=O)C(=O)N2 [Compound 171] ([X1]IEWQ[Dab][Phe(4-Cl)][Phe(3,4-Me2)][αMeV]E[Dab][αMeAla(3-pyridyl)]-NH2; lactam 3-6, N-10)"
  MEASURED_ENDPOINT: "remaining at 4 h, 10 μM"
  VALUE_REPORTED: 68
- COMPOUND: "CC(C)C[C@]1(C)NC(=O)[C@H](Cc2ccc3ccccc3c2)NC(=O)[C@H](Cc2ccc(OCCN)cc2)NC(=O)[C@@H]2CCCNC(=O)CC[C@H](NC(=O)[C@H](CO)NC(=O)Cc3ccc(cc3)CNC(=O)CC[C@@H](C(=O)N[C@@H](CCN)C(=O)N[C@@H](Cc3cccnc3)C(N)=O)NC1=O)C(=O)N[C@@H](Cc1c[nH]c3ccccc13)C(=O)N[C@@H](CCC(N)=O)C(=O)N2"
  MEASURED_ENDPOINT: "remaining at 4 h, 10 μM"
  VALUE_REPORTED: 0
- COMPOUND: "CC(=O)N[C@@H](CC(=O)O)C(=O)N[C@H]1CCC(=O)NCCCC[C@@H](C(=O)NCC(N)=O)NC(=O)[C@](C)(CC(C)C)NC(=O)[C@H](Cc2ccc3ccccc3c2)NC(=O)[C@H](Cc2c[nH]c3ccccc23)NC(=O)[C@@H]2CSCC(=O)CSC[C@H](NC(=O)[C@H](CO)NC1=O)C(=O)N[C@@H](Cc1c[nH]c3ccccc13)C(=O)N[C@@H](CCC(N)=O)C(=O)N2 [Compound 60] (Ac-DESCWQCW[2Nal][αMeL]KG-NH2; lactam 2-11; linker 4-7 via CH2COCH2)"
  MEASURED_ENDPOINT: "remaining at 4 h, 10 μM"
  VALUE_REPORTED: 12
- COMPOUND: "CC[C@H](C)[C@@H]1NC(=O)Cc2ccc(cc2)CNC(=O)CC[C@@H](C(=O)N[C@@H](CCN)C(=O)N[C@@](C)(Cc2cccnc2)C(N)=O)NC(=O)[C@](C)(C(C)C)NC(=O)[C@H](Cc2ccc(C)c(C)c2)NC(=O)[C@H](Cc2ccc(OCCN)cc2)NC(=O)[C@@H]2CCNC(=O)CC[C@H](NC1=O)C(=O)N[C@@H](Cc1c[nH]c3ccccc13)C(=O)N[C@@H](CCC(N)=O)C(=O)N2 [Compound 165] ([X1]IEWQ[Dab][AEF][Phe(3,4-Me2)][αMeV]E[Dab][αMeAla(3-pyridyl)]-NH2; lactam 3-6, N-10)"
  MEASURED_ENDPOINT: "remaining at 4 h, 10 μM"
  VALUE_REPORTED: 109

Entry source: patent US20250154198A1
